These measurements were taken from the supplement of paper PMC4466140.

Entries and their SPOT peptide array binding signal intensity
Target: ScAbp1
Assay: SPOT peptide array binding signal intensity (averaged, normalized) (arbitrary units (background-subtracted, floor 0; scale differs between SH3 domains)); higher = stronger binding of the SH3 domain to the peptide
Give only the figure.

The examples below pair each entry with its known result.
{"BINDER": "RFKRHRLEFPFNESE", "VALUE_MEASURED": 236}
{"BINDER": "PVLPPPRSPNRPTLS", "VALUE_MEASURED": 47.5}

// moving on: another record for SPOT peptide array binding signal intensity
The binder listed as ERPKRRAPPPVPKKP has a reported SPOT peptide array binding signal intensity of 2010
